Exercise: state measured Human Predicted Hepatocyte CL for each of the compounds provided.
# Procedure summary: Hepatocyte stability assay, human
# Type: in vitro ADME
# Experimental setup: human hepatocytes, 1 μM
One number for each entry, in mL/min/kg.

Compound	Unit	Quantitative readout
Cc1ncc2c(N)nc3cnc(C(=O)N4CCC[C@@H]5Oc6cc(OC(F)(F)F)cc(F)c6[C@@H]54)cc3n12 [Fg-66]	mL/min/kg	4.67
Nc1nc2cc(F)c(C(=O)N3CCC[C@@H]4Oc5cc(C(F)(F)F)ccc5[C@@H]43)cc2n2cncc12 [Ff-104]	mL/min/kg	8.3

Would you mind listing Human Predicted Hepatocyte CL for each of the following compounds?
1. Cc1ncc2c(N)nc3cnc(C(=O)N4CC[C@H]5C[C@@H]4c4cc(F)c(C(F)(F)F)cc4O5)cc3n12 [Ff-696]
2. Nc1nc2cnc(C(=O)N3CCC[C@@H]4Oc5c(ccc(C(F)(F)F)c5F)[C@@H]43)cc2n2cncc12 [Ff-109]
3. Nc1nc2ccc(C(=O)N3CCC[C@@H]4Oc5cc(OC(F)(F)F)cc(F)c5[C@@H]43)cc2n2cncc12 [Ff-697]
4. Nc1nc2ccc(C(=O)N3CCC[C@@H]4Oc5cc(C(F)(F)F)ccc5[C@@H]43)cc2n2cncc12 [Ff-111]
5. Nc1nc2ccc(C(=O)N3CCC[C@@H]4Oc5cc(C(F)(F)F)cc(F)c5[C@@H]43)cc2n2cncc12 [Ff-693]

1. 4.5
2. 2.33
3. 6.7
4. 5.83
5. 5.17

* * *

Exercise: state measured bioavailability for each of the compounds provided.
# Procedure summary: PK data (IV/PO) in Beagle dog
# Experimental setup: in vivo, PO 0.5 mg/Kg
One number for each entry, in %.

Recorded bioavailability, per entry:
Compound	Experimental endpoint	Quantitative readout
Nc1nc2cc(F)c(C(=O)N3CCC[C@@H]4Oc5cc(C(F)(F)F)ccc5[C@@H]43)cc2n2cncc12 [Ff-104]	bioavailability	68
Nc1nc2cnc(C(=O)N3CCC[C@@H]4Oc5cc(C(F)(F)F)cc(F)c5[C@@H]43)cc2n2cncc12 (single isomer, unassigned) [Fg-53]	bioavailability	73

Assign bioavailability to the following record: C[C@H]1CN(C(=O)c2cc3c(cc2F)nc(N)c2cncn23)[C@H]2c3ccc(C(F)(F)F)cc3C[C@H]2O1 (single isomer, unassigned) [Ff-81]
134

* * *

# Test system: HCT116 MTAP-deleted cell lines
# Procedure summary: Cell viability assay (CellTiter-Glo, 7 days), HCT116 MTAP-deleted
# Type: cell-based
# Experimental setup: Homo sapiens, HCT-116; cell viability, HCT116 MTAP-deleted; class symbols; read-out: CC50
Experimental endpoint: CC50

Recorded CC50, per entry:
Molecule	Result
Nc1nc2ccc(C(=O)N3CCC[C@@H]4Oc5c(ccc(C(F)(F)F)c5F)[C@@H]43)cc2n2cncc12	< 100 nM
CCN(C(=O)c1ccc2nc(N)c3cncn3c2c1)[C@@H](c1ccc(C(F)(F)F)cc1F)C(F)F	< 100 nM
CN(Cc1nc(-c2cnn(C(F)F)c2)cs1)C(=O)c1cc2c(cc1F)nc(N)c1cncn12	100 to 1000 nM
CN(C(=O)c1cc2c(cc1F)nc(N)c1cncn12)[C@H]1COCc2nc(C(F)(F)F)ccc21	100 to 1000 nM
Nc1nc2cc(F)c(C(=O)N3CC(F)(F)CCC3c3ccc(C(F)(F)F)cn3)cc2n2cncc12 (stereo not shown)	< 100 nM

Would you mind listing CC50 for each of the following molecules?
1. CN(C(=O)c1ccc2nc(N)c3cncn3c2c1)C1CCc2nc(Cl)sc21 (stereo not shown)
2. Nc1nc2cc(F)c(C(=O)N(Cc3ccc(-c4cnn(C(F)(F)F)c4)cn3)C34CC(C3)C4)cc2n2cncc12
3. CO[C@@H]1COCC[C@H]1N(Cc1ccc(C(F)(F)F)cc1F)C(=O)c1cc2c(cc1F)nc(N)c1cncn12
4. CN(C(=O)c1cc2c(cc1F)nc(N)c1cncn12)C1CCc2nc(Br)ccc21 (stereo not shown)
5. C[C@H]1CN(C(=O)c2cc3c(cc2F)nc(N)c2cncn23)[C@H]2c3ccc(OC(F)(F)F)c(F)c3C[C@H]2O1 (single isomer, unassigned)
6. C[C@H]1OC[C@@H](N(C)C(=O)c2ccc3nc(N)c4cncn4c3c2)c2ccc(C(F)(F)F)cc21 (racemic)

["> 1000 nM", "< 100 nM", "< 100 nM", "100 to 1000 nM", "< 100 nM", "< 100 nM"]

* * *

# Tested on: HCT116 MTAP-deleted cell lines
# Procedure summary: Cell viability assay (CellTiter-Glo, 7 days), HCT116 MTAP-deleted
# Type: cell-based
# Experimental setup: Homo sapiens, HCT-116; cell viability, HCT116 MTAP-deleted; class symbols; read-out: CC50
Exercise: state measured CC50 for each of the compounds provided.

Compound	Experimental endpoint	Result
Nc1nc2cc(F)c(C(=O)N3CCC[C@@H]4Cc5nc(C(F)(F)F)ccc5[C@@H]43)cc2n2cncc12 (racemic) [Ff-314]	CC50	< 0.1 µM
Nc1nc2cnc(C(=O)N3C[C@H](F)CC4Oc5cc(C(F)(F)F)ccc5[C@@H]43)cc2n2cncc12 (mixture of isomers) [Ff-113]	CC50	< 0.1 µM
CN(C(=O)c1cc2c(cc1F)nc(N)c1cncn12)[C@@H](c1ccc(OC(F)F)cc1F)C(F)F [Fb-10]	CC50	< 0.1 µM
CN(C(=O)c1cc2c(cc1F)nc(N)c1cncn12)[C@@H]1COc2cc(-c3cnn(C4COC4)c3)ccc21 [Ff-145]	CC50	< 0.1 µM
CN(C(=O)c1cc2c(cc1F)nc(N)c1cncn12)[C@@H]1COc2cc(-n3cnc(C(F)(F)F)n3)ccc21 [Ff-324]	CC50	< 0.1 µM

Would you mind listing CC50 for each of the following compounds?
1. Nc1nc2cc(F)c(C(=O)N(Cc3ccc(C(F)(F)F)cn3)c3cnn(-c4ccccc4)c3)cc2n2cncc12 [Ff-315]
2. Nc1nc2cc(F)c(C(=O)N3CC[C@H]4C[C@@H]3c3ccc(C(F)(F)F)cc3O4)cc2n2cncc12 [Ff-365]

["< 0.1 µM", "< 0.1 µM"]

* * *

# Procedure summary: Hepatocyte stability assay, human
# Type: in vitro ADME
# Experimental setup: human hepatocytes, 1 μM
Classify by measured Human Predicted Hepatocyte CL: Satisfied if it is equal to or exceeds 3 mL/min/kg, Not satisfied if it is smaller.

Human Predicted Hepatocyte CL >= 3 mL/min/kg for Nc1nc2cnc(C(=O)N3CC[C@H]4C[C@@H]3c3ccc(C(F)(F)F)cc3O4)cc2n2cncc12 [Ff-367] ?
Not satisfied

Human Predicted Hepatocyte CL >= 3 mL/min/kg for [2H]C1([2H])CC[C@@H]2Oc3cc(C(F)(F)F)ccc3[C@@H]2N1C(=O)c1cc2c(cn1)nc(N)c1cncn12 [Fg-60] ?
Satisfied

Human Predicted Hepatocyte CL >= 3 mL/min/kg for Cc1ncc2c(N)nc3cnc(C(=O)N4CCC[C@@H]5Oc6cc(C(F)(F)F)ccc6[C@@H]54)cc3n12 [Ff-344] ?
Not satisfied

Human Predicted Hepatocyte CL >= 3 mL/min/kg for [2H]C1([2H])CC[C@@H]2Oc3cc(C(F)(F)F)ccc3[C@@H]2N1C(=O)c1cc2c(cc1F)nc(N)c1cncn12 [Ff-121] ?
Satisfied

Human Predicted Hepatocyte CL >= 3 mL/min/kg for Nc1nc2cnc(C(=O)N3CC4(CC4)C[C@@H]4Oc5cc(C(F)(F)F)ccc5[C@@H]43)cc2n2cncc12 [Ff-648] ?
Satisfied

Human Predicted Hepatocyte CL >= 3 mL/min/kg for Cc1ncc2c(N)nc3cnc(C(=O)N4CCC[C@@H]5Oc6cc(C(F)(F)F)cc(F)c6[C@@H]54)cc3n12 [Fg-67] ?
Satisfied

* * *

# System: Symmetric Di-methyl Arginine (SDMA) signal (PRMT5 inhibition) in HCT116 MTAP-deleted cells
# Procedure summary: Symmetric di-methyl arginine image-based high content screen assay (SDMA assay), HCT116 MTAP-deleted
# Type: cell-based
# Experimental setup: Homo sapiens, HCT-116, HCT116 MTAP-deleted, class symbols
Experimental endpoint: EC50

Molecule	EC50
Cc1ncn2c(N)nc3ccc(C(=O)N(C)[C@@H]4COc5cc(C(F)(F)F)ccc54)cc3c12 [Fg-11]	> 5 nM
Nc1nc2ccc(C(=O)N(Cc3ccc(C(F)(F)F)cn3)N3CCOCC3)cc2n2cncc12 [Fb-2]	1 to 5 nM
[2H]C1([2H])CC[C@@H]2Oc3cc(OC(F)(F)F)ccc3[C@@H]2N1C(=O)c1cc2c(cn1)nc(N)c1cncn12 [Fg-59]	≤ 1 nM
Nc1nc2ccc(C(=O)N(Cc3ccc(C(F)(F)F)cn3)C34CC(C3)C4)cc2c2cncn12 [Fg-15]	> 5 nM
CN(C(=O)c1ccc2nc(N)c3cncn3c2c1)[C@@H]1COc2cc(C(F)(F)F)ccc21 [Ff-11]	≤ 1 nM
CN(C(=O)c1ccc2nc(N)n3cncc3c2c1)[C@@H]1COc2cc(C(F)(F)F)ccc21 [Fg-9]	> 5 nM
Cc1ncn2c1c(N)nc1ccc(C(=O)N3C[C@@H](C)O[C@@H]4Cc5cc(C(F)(F)F)ccc5[C@@H]43)cc12 [Fg-35]	1 to 5 nM
Cc1ncn2c1c(N)nc1cnc(C(=O)N3CCC4(CC4)[C@@H]4Oc5cc(OC(F)(F)F)ccc5[C@@H]43)cc12 [Ff-617]	1 to 5 nM

Would you mind listing EC50 for each of the following molecules?
1. Cc1ncc2c(N)nc3ccc(C(=O)N(Cc4ccc(C(F)(F)F)cn4)N4CCCC4=O)cc3n12 [Fc-1]
2. CC(=O)N(C)N(Cc1ccc(C(F)(F)F)cc1F)C(=O)c1ccc2nc(N)c3c(C)nc(C)n3c2c1 [Fa-7]
3. C[C@@H]1C[C@@H]2Oc3cc(OC(F)(F)F)ccc3[C@@H]2N(C(=O)c2ccc3nc(N)c4cncn4c3c2)C1 [Ff-616]

1: 1 to 5 nM; 2: > 5 nM; 3: ≤ 1 nM
